System: HS 578T breast
experimental protocol: NCI tumour cell line growth inhibition, 48 h
observable: TGI

Query string: Give the measured TGI of O=S(=O)(Nc1ccc(Cl)c(F)c1)c1ccc(-c2cnc(C3CC3)o2)cc1 .
Result string: 8.56 µM

Query string: Give the measured TGI of O=[N+]([O-])c1cccc2nc3ccccc3c(NCCN(CCO)CCO)c12 .
Result string: 0.0308 µM

Query string: Give the measured TGI of O=C(CSc1ncnc2nc[nH]c12)c1ccccc1 .
Result string: > 100 µM

Query string: Give the measured TGI of CCOP(=O)(CN1CCNCCN(CP(=O)(OCC)OCC)CC1)OCC .
Result string: > 100 µM

Query string: Give the measured TGI of COC(=O)C(=O)C(C(=O)C(=O)Nc1ccc([N+](=O)[O-])cc1[N+](=O)[O-])c1nc2ccc(Cl)cc2[nH]c1=O (centres undefined) .
Result string: 90.8 µM

Query string: Give the measured TGI of CC(C)C[C@@H](NC(=O)[C@@H](Cc1cccc2ccccc12)NC(=O)N1CCOCC1)B(O)O .
Result string: > 100 µM

Query string: Give the measured TGI of N#CCCC1(CCC#N)CCCCCCC(CCC#N)(CCC#N)C(=O)C1=O .
Result string: > 100 µM

Query string: Give the measured TGI of Cc1cc(C)c([S@@](=O)O[C@@H]2[C@H]3OC(C)(C)O[C@H]3O[C@@H]2[C@H]2COC(C)(C)O2)c(C)c1 .
Result string: > 100 µM

Query string: Give the measured TGI of Cn1c(=O)c2[nH]c(CSCc3ccccc3)nc2n(C)c1=O .
Result string: > 100 µM
